target: Cathepsin D (Cat D) (Homo sapiens, UniProt P07339); construct: made in house; host or cells: CHO cells; test: In vitro enzymatic Cathepsin D (Cat D) FRET assay; assay type: biochemical; settings: read-out: CatD IC50
Sequence (P07339 65-412, species assumed): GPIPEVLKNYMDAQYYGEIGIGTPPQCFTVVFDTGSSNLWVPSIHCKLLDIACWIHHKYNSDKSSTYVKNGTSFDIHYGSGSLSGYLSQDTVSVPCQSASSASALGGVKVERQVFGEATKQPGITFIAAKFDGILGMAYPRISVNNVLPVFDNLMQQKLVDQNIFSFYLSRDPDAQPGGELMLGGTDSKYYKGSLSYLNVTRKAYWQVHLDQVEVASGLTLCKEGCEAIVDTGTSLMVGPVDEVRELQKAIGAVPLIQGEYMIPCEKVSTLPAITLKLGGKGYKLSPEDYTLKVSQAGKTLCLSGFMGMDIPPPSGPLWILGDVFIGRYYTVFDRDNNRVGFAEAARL
Entries and their measured IC50 follow.
Express your answer in µM, writing the number without its unit.

Look over these answered cases.
Cc1cc(OC(F)F)cnc1C(=O)Nc1ccc(F)c([C@@]2(C)N=C(N)[C@@H]3CCC[C@H]2S3(=O)=O)c1 | 690
Cc1cc(Cl)cnc1C(=O)Nc1ccc(F)c([C@]2(C)N=C(N)[C@]3(C)CC[C@H]2S3(=O)=O)c1 | 4310
Cc1cc(Cl)cnc1C(=O)Nc1ccc(F)c([C@@]2(C)N=C(N)[C@]3(C)CCC[C@@]2(F)S3(=O)=O)c1 | 22.7
Cc1cc(Cl)cnc1C(=O)Nc1ccc(F)c([C@@]2(C)N=C(N)[C@@]3(C)CC[C@@H]2S3(=O)=O)c1 | 1740
COc1cnc(C(=O)Nc2ccc(F)c([C@@]3(C)N=C(N)[C@@]4(C)CC[C@@H]3S4(=O)=O)c2)cn1 | 1170

compound Cc1cc(C(F)(F)F)cnc1C(=O)Nc1ccc(F)c([C@@]2(C)N=C(N)[C@]3(C)CC[C@H]2S3(=O)=O)c1 , IC50 observed: 2040

compound COc1cnc2c(Nc3ccc(F)c([C@@]4(C)N=C(N)[C@@H]5CCC[C@H]4S5(=O)=O)c3)nccc2n1 (stereo in doubt) , IC50 observed: 1210

compound C[C@]1(c2cc(Nc3ncc(F)c4cc(Cl)cnc34)ccc2F)N=C(N)[C@@]2(C)CC[C@@H]1S2(=O)=O , IC50 observed: 733

compound Cc1cc(Cl)cnc1C(=O)Nc1ccc(F)c([C@@]2(C)N=C(N)[C@]3(C)CC[C@H]2S3(=O)=O)c1 , IC50 observed: 577

compound Cc1c(C(=O)Nc2ccc(F)c([C@@]3(C)N=C(N)[C@@]4(C)CC[C@@H]3S4(=O)=O)c2)nc2ccc(Cl)cn12 , IC50 observed: 318

compound Cc1cc(Cl)cnc1C(=O)Nc1ccc(F)c([C@@]2(C)N=C(N)[C@H]3CCC[C@@H]2S3(=O)=O)c1 , IC50 observed: 717

compound Cc1cc(Cl)cnc1C(=O)Nc1ccc(F)c([C@@]2(C)N=C(N)[C@@]3(C)CCC[C@]2(F)S3(=O)=O)c1 , IC50 observed: 22.6

compound Cc1cc(Cl)cnc1C(=O)Nc1ccc(F)c([C@@]2(C)N=C(N)[C@@]3(C)CCC[C@]2(C)S3(=O)=O)c1 , IC50 observed: 51.5

compound COc1cnc(C(=O)Nc2ccc(F)c([C@@]3(C)N=C(N)[C@@]4(C)CCC[C@]3(C)S4(=O)=O)c2)cn1 , IC50 observed: 138

###

Entries and their measured log10 IC50 follow.
Target: Cathepsin D (Cat D) (Homo sapiens)
Construct: made in house; host or cells: CHO cells
Experiment: In vitro enzymatic Cathepsin D (Cat D) FRET assay
Type: biochemical
Details: average IC50; first procedure; read-out: CatD IC50
Protocol: In Vitro Enzymatic Cathepsin D (Cat D) FRET (Fluorescence Resonance Energy Transfer) Assay Recombinant Cat D was expressed in CHO cells. The assay buffer for CathepsinD is 0.05 M citrate pH 3.5, 10% DMSO final, 5 mM CHAPS. […] The FRET assay is terminated with by addition of Tris buffer, which raises the pH to neutrality, and the fluorescence is determined. […] Proteolytic cleavage of the FRET substrate releases quenching of fluorescence (Cat D excitation 500 nm and emission 580 nm). […]
The common logarithm of IC50 in µM is what is listed.

Look over these answered cases.
Cc1cc(C(F)(F)F)cnc1C(=O)Nc1ccc(F)c([C@@]2(C)N=C(N)[C@@]3(CF)CC[C@@H]2S3(=O)=O)c1 | 2.90
C[C@]1(c2cc(Nc3ncnc4cc(C#N)cnc34)ccc2F)N=C(N)[C@@]2(CF)CC[C@@H]1S2(=O)=O | 2.81
COc1cnc2c(Nc3ccc(F)c([C@@]4(C)N=C(N)[C@@]5(C)CC[C@@H]4S5(=O)=O)c3)ncc(F)c2c1 | 3.51

Readout log10 IC50 for Cc1cc(C(F)(F)F)cnc1C(=O)Nc1ccc(F)c([C@@]2(C)N=C(N)[C@@]3(C)CC[C@]2(C)S3(=O)=O)c1 , test system Cathepsin D (Cat D) (Homo sapiens), was 1.73

Readout log10 IC50 for C[C@]12CC[C@H]([C@@](C)(c3cc(Nc4ncc(F)c5cc(OCC6CC6)cnc45)ccc3F)N=C1N)S2(=O)=O , test system Cathepsin D (Cat D) (Homo sapiens), was 3.73

Readout log10 IC50 for CC#CCOc1cnc(C(=O)Nc2ccc(F)c([C@@]3(C)N=C(N)[C@]4(C)CC[C@H]3S4(=O)=O)c2)cn1 , test system Cathepsin D (Cat D) (Homo sapiens), was 3.04

###

target: BACE1 (Homo sapiens, UniProt P56817); test: In vitro enzymatic BACE FRET assay; type: biochemical; settings: average IC50; read-out: BACE1 Enzyme assay IC50
Sequence (P56817 46-501, species assumed): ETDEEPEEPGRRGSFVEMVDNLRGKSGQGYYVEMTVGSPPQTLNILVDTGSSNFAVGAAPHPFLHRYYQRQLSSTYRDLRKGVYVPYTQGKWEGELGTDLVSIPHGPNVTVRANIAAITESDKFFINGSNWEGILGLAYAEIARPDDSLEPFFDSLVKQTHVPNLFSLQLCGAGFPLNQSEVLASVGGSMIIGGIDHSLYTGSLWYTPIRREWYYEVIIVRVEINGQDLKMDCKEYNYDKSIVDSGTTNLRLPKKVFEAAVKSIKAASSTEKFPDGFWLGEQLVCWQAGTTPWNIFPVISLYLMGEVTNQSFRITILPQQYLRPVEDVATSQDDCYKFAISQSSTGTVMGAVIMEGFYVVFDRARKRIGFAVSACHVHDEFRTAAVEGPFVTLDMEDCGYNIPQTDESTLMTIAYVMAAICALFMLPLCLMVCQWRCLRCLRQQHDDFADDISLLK
EXPERIMENTAL ENDPOINT: log10 IC50 (log10 of the value in nM)
The common logarithm of IC50 in nM is what is listed.

Look over these answered cases.
C[C@]1(c2cc(Nc3ncc(F)c4cc(OCC5CC5)cnc34)ccc2F)N=C(N)[C@@]2(C)CC[C@@H]1S2(=O)=O | 0.48
C[C@]1(c2cc(Nc3nccc4nc(OCc5ncco5)cnc34)ccc2F)N=C(N)[C@@]2(C)CC[C@@H]1S2(=O)=O | 0.00
Cc1cc(Cl)cnc1C(=O)Nc1ccc(F)c([C@@]2(CF)N=C(N)[C@@]3(C)CC[C@@H]2S3(=O)=O)c1 (single isomer, unassigned) | 1.23
C[C@]1(c2cc(Nc3ncnc4cc(Cl)cnc34)ccc2F)N=C(N)[C@@]2(CF)CC[C@@H]1S2(=O)=O | 0.70
C[C@]12CC[C@H]([C@@](C)(c3cc(Nc4nccc5nc(OCC6CC6)cnc45)ccc3F)N=C1N)S2(=O)=O | 2.19

Then this compound:
compound COc1cnc(C(=O)Nc2ccc(F)c([C@@]3(CF)N=C(N)[C@]4(C)CC[C@H]3S4(=O)=O)c2)cn1 , log10 IC50 observed: 1.99

###

biological target: BACE1 (Homo sapiens, UniProt P56817); experiment: In vitro enzymatic BACE FRET assay; type: biochemical; details: average IC50; read-out: BACE1 Enzyme assay IC50
EXPERIMENTAL ENDPOINT: IC50 (nM)
Express your answer in nM, writing the number without its unit.

CC#C[C@@H](C)Oc1cnc(C(=O)Nc2ccc(F)c([C@@]3(C)N=C(N)[C@@]4(C)CC[C@@H]3S4(=O)=O)c2)cn1 | 14

molecule C[C@]1(c2cc(NC(=O)c3cnc(C(F)F)cn3)ccc2F)N=C(N)[C@@]2(CF)CC[C@@H]1S2(=O)=O , IC50 observed: 17

molecule CC#CCOc1cnc(C(=O)Nc2ccc(F)c([C@@]3(C)N=C(N)[C@@]4(C)CC[C@@H]3S4(=O)=O)c2)cn1 , IC50 observed: 0.5

molecule CC#CCOc1cnc2c(Nc3ccc(F)c([C@@]4(C)N=C(N)[C@@]5(C)CC[C@@H]4S5(=O)=O)c3)nccc2n1 , IC50 observed: 1

molecule C[C@]1(c2cc(Nc3nccc4cc(Cl)cnc34)ccc2F)N=C(N)[C@@]2(CF)CC[C@@H]1S2(=O)=O , IC50 observed: 1

molecule CC#CCOc1cnc(C(=O)Nc2ccc(F)c([C@@]3(C)N=C(N)[C@]4(CF)CC[C@H]3S4(=O)=O)c2)cn1 , IC50 observed: 7

molecule COCc1ccc(C(=O)Nc2ccc(F)c([C@@]3(C)N=C(N)[C@]4(C)CC[C@H]3S4(=O)=O)c2)nc1 , IC50 observed: 255

molecule C[C@]1(c2cc(Nc3nccc4nc(OCC5CC5)cnc34)ccc2F)N=C(N)[C@@]2(C)CC[C@@H]1S2(=O)=O , IC50 observed: 5

molecule C[C@]1(c2cc(Nc3nccc4nc(OCc5ncco5)cnc34)ccc2F)N=C(N)[C@@]2(CF)CC[C@@H]1S2(=O)=O , IC50 observed: 2

molecule COc1cnc2c(Nc3ccc(F)c([C@@]4(C)N=C(N)[C@@]5(CF)CC[C@@H]4S5(=O)=O)c3)ncnc2c1 , IC50 observed: 7

molecule Cc1cc(C(F)(F)F)cnc1C(=O)Nc1ccc(F)c([C@@]2(CF)N=C(N)[C@]3(C)CC[C@H]2S3(=O)=O)c1 (single isomer, unassigned) , IC50 observed: 44

###

test system: Aβ40 in conditioned medium of cells stably expressing Amyloid Precursor Protein (APP); experiment: In vitro BACE cell-based assay (HEK cell assay, Aβ40 sandwich ELISA); details: Homo sapiens, HEK293; average IC50; read-out: BACE1 cell assay IC50
Strictly below 20 nM in IC50: label 1. Otherwise: label 0.

Would you please look over these solved cases?
CC#CCOc1ccc(C(=O)Nc2ccc(F)c([C@@]3(C)N=C(N)[C@]4(C)CC[C@H]3S4(=O)=O)c2)c(F)c1 | label 0
C[C@]1(c2cc(Nc3nccc4nc(OCc5ncco5)cnc34)ccc2F)N=C(N)[C@@]2(C)CC[C@@H]1S2(=O)=O | label 1
Cc1cc(C(F)(F)F)cnc1C(=O)Nc1ccc(F)c([C@@]2(C)N=C(N)[C@]3(C)CC[C@@]2(C)S3(=O)=O)c1 | label 1

Prompt: Quick check: does CC#CCOc1cnc2c(Nc3ccc(F)c([C@@]4(C)N=C(N)[C@@]5(C)CC[C@@H]4S5(=O)=O)c3)ncc(F)c2c1 have IC50 under 20 nM?
Response: label 1

Prompt: Quick check: does CCCOc1cnc2c(Nc3ccc(F)c([C@@]4(C)N=C(N)[C@@]5(C)CC[C@@H]4S5(=O)=O)c3)nccc2n1 have IC50 under 20 nM?
Response: label 0

Prompt: Quick check: does C[C@]12CC[C@H]([C@@](C)(c3cc(Nc4nccc5nc(C(F)(F)F)cnc45)ccc3F)N=C1N)S2(=O)=O have IC50 under 20 nM?
Response: label 0

Prompt: Quick check: does CC#CCOc1cnc2c(Nc3ccc(F)c([C@@]4(C)N=C(N)[C@]5(C)CC[C@H]4S5(=O)=O)c3)ncc(F)c2c1 have IC50 under 20 nM?
Response: label 0
